- Tested on: Rotala indica
- method notes: Pre-emergence herbicidal activity against Rotala indica at 500 g a.i/ha measured after 14 days
- Assay type: functional, organism-based
Active and inactive are the calls of the source.
Response enum: true (1) = active, false (0) = inactive

The examples below pair each entry with its known result.
Cn1cc(C(=O)NOc2ccc(Cl)cc2Cl)c(OCc2cccc(C(F)(F)F)c2)n1 : true (1)
CCONC(=O)c1cn(C)nc1OCc1cccc(C(F)(F)F)c1 : true (1)
CCONC(=O)c1cn(C(F)F)nc1OCc1cccc(C(F)(F)F)c1 : true (1)
Cn1cc(C(=O)Nc2ccc(C(F)(F)F)cc2)c(OCc2cccc(C(F)(F)F)c2)n1 : true (1)
Cn1cc(C(=O)NOc2ccc(C(C)(C)C)cc2)c(OCc2cccc(C(F)(F)F)c2)n1 : false (0)
CCCCONC(=O)c1cn(C)nc1OCc1cccc(C(F)(F)F)c1 : true (1)
Cc1c(C(=O)NOc2ccc(F)cc2F)c(OCc2cccc(C(F)(F)F)c2)nn1C : false (0)
CNC(=O)c1cn(C)nc1OCc1cccc(C(F)(F)F)c1 : false (0)

Each compound tested received a call. Report the one for `Cn1nc(OCc2cccc(C(F)(F)F)c2)c(C(=O)NOc2ccc(F)cc2F)c1Cl` .
false (0)

Each compound tested received a call. Report the one for `Cn1cc(C(=O)NOc2ccccc2Cl)c(OCc2cccc(C(F)(F)F)c2)n1` .
true (1)

====

- Tested on: Rotala indica
- method notes: Pre-emergence herbicidal activity against Rotala indica at 500 g a.i/ha measured after 14 days
- Assay type: functional, organism-based
Activity calls are given as the source filed them.
Response enum: t for active, f for inactive

The examples below pair each entry with its known result.
C=CCNC(=O)c1cn(C)nc1OCc1cccc(C(F)(F)F)c1 : f
Cn1cc(C(=O)NOc2ccc(Cl)cc2)c(OCc2cccc(C(F)(F)F)c2)n1 : t
CCCONC(=O)c1cn(C)nc1OCc1cccc(C(F)(F)F)c1 : t
Cn1cc(C(=O)Nc2cccc(Cl)c2)c(OCc2cccc(C(F)(F)F)c2)n1 : t

Each compound tested received a call. Report the one for `Cn1cc(C(=O)Nc2ccccc2)c(OCc2cccc(C(F)(F)F)c2)n1` .
t

Each compound tested received a call. Report the one for `Cn1cc(C(=O)NOc2ccccc2)c(OCc2cccc(C(F)(F)F)c2)n1` .
t

Each compound tested received a call. Report the one for `C#CCNC(=O)c1cn(C)nc1OCc1cccc(C(F)(F)F)c1` .
f

Each compound tested received a call. Report the one for `Cn1cc(C(=O)Nc2ccc(Cl)cc2Cl)c(OCc2cccc(C(F)(F)F)c2)n1` .
t

Each compound tested received a call. Report the one for `Cn1cc(C(=O)Nc2ccc(C#N)cc2)c(OCc2cccc(C(F)(F)F)c2)n1` .
t

Each compound tested received a call. Report the one for `Cn1cc(C(=O)N2CCCC2)c(OCc2cccc(C(F)(F)F)c2)n1` .
f

====

- Tested on: Rotala indica
- method notes: Pre-emergence herbicidal activity against Rotala indica assessed as bleaching of stem/leaf parts
- Format: functional, organism-based
Active and inactive are the calls of the source.
value type: Activity

CCONC(=O)c1cn(C)nc1OCc1cccc(C(F)(F)F)c1 : Active
CCCN(CC)C(=O)c1cn(C)nc1OCc1cccc(Cl)c1 : Active
Cn1cc(C(=O)NOc2ccc(F)cc2)c(OCc2cccc(C(F)(F)F)c2)n1 : Active
C#CCNC(=O)c1cn(C)nc1OCc1cccc(C(F)(F)F)c1 : Active
Cn1cc(C(=O)NOc2ccc(F)cc2F)c(OCc2cccc(C(F)(F)F)c2)n1 : Active
CCCn1cc(C(=O)NOCC)c(OCc2cccc(C(F)(F)F)c2)n1 : Active
CCCCONC(=O)c1cn(C)nc1OCc1cccc(C(F)(F)F)c1 : Active
CCCN(CC)C(=O)c1cn(C)nc1OCc1cccc(C#N)c1 : Active
CCCN(CC)C(=O)c1cn(C)nc1OCc1ccc(C)cc1 : Active
Cc1c(C(=O)NOc2ccc(F)cc2F)c(OCc2cccc(C(F)(F)F)c2)nn1C : Active

Per the record, `CCCN(CC)C(=O)c1cn(C)nc1OCc1cc(Br)cc(Br)c1` has Activity of Active

Per the record, `CCCN(CC)C(=O)c1cn(C)nc1OCc1ccc(C(F)(F)F)cc1` has Activity of Active

Per the record, `CONC(=O)c1cn(C)nc1OCc1cccc(C(F)(F)F)c1` has Activity of Active

Per the record, `CCCN(CC)C(=O)c1cn(C)nc1OCc1ccccc1C(F)(F)F` has Activity of Active

Per the record, `CCONC(=O)c1cn(C(F)F)nc1OCc1cccc(C(F)(F)F)c1` has Activity of Active

Per the record, `Cn1cc(C(=O)Nc2ccc(Cl)cc2Cl)c(OCc2cccc(C(F)(F)F)c2)n1` has Activity of Active

Per the record, `Cn1cc(C(=O)NOc2ccccc2)c(OCc2cccc(C(F)(F)F)c2)n1` has Activity of Active

Per the record, `Cn1cc(C(=O)NOc2ccccc2Cl)c(OCc2cccc(C(F)(F)F)c2)n1` has Activity of Active

====

- Test system: Eleocharis acicularis
- method notes: Pre-emergence herbicidal activity against Eleocharis acicularis at 500 g a.i/ha measured after 14 days
- Assay type: functional, organism-based
Active and inactive are the calls of the source.
Response enum: active, inactive

The examples below pair each entry with its known result.
Cn1cc(C(=O)NOc2ccc(Cl)cc2Cl)c(OCc2cccc(C(F)(F)F)c2)n1 : active
C#CCNC(=O)c1cn(C)nc1OCc1cccc(C(F)(F)F)c1 : inactive
Cn1cc(C(=O)NOc2ccc(C(C)(C)C)cc2)c(OCc2cccc(C(F)(F)F)c2)n1 : inactive
Cc1c(C(=O)NOc2ccc(F)cc2F)c(OCc2cccc(C(F)(F)F)c2)nn1C : inactive

# next molecule below
Each molecule tested received a call. Report the one for `Cn1cc(C(=O)Nc2ccccc2)c(OCc2cccc(C(F)(F)F)c2)n1` .
active

====

- Tested on: Oryza sativa
- method notes: Phytotoxicity against Oryza sativa cv. Koshihikari (rice) at 2000 g a.i/ha measured after 14 days
- Assay type: organism-based
- stated conditions: in vivo, 336 h
value type: Activity

Illustrative cases are given below, each with its answer.
CCCN(CC)C(=O)c1cn(C)nc1OCc1ccc(C(F)(F)F)cc1 : Non-toxic
CCCN(CC)C(=O)c1cn(C)nc1OCc1cccc(C(F)(F)F)c1 : Toxic
CCCN(CC)C(=O)c1cn(C)nc1OC : Non-toxic
CCCN(CC)C(=O)c1cn(C)nc1OCc1cc(C(F)(F)F)cc(C(F)(F)F)c1 : Non-toxic

Next:
Per the record, `CCCN(CC)C(=O)c1cn(C)nc1OCc1cccc(F)c1` has Activity of Non-toxic

====

- Tested on: Schoenoplectiella juncoides
- method notes: Pre-emergence herbicidal activity against Schoenoplectiella juncoides at 2000 g a.i/ha measured after 14 days
- Type: functional, organism-based
The source made the active and inactive calls.
Response enum: Y (active), N (inactive)

The examples below pair each entry with its known result.
CCCN(CC)C(=O)c1cn(C)nc1OCc1cccc(C(F)(F)F)c1 : Y
CCCN(CC)C(=O)c1cn(C)nc1OCc1cc(C(F)(F)F)cc(C(F)(F)F)c1 : N
CCCN(CC)C(=O)c1cn(C)nc1OCc1cc(F)cc(F)c1 : Y
CCCN(CC)C(=O)c1cn(C)nc1OCc1cccc(Cl)c1 : Y

# next compound below
Each compound tested received a call. Report the one for `CCCN(CC)C(=O)c1cn(C)nc1OCc1cccc(C)c1` .
Y

====

- Test system: Oryza sativa
- method notes: Phytotoxicity against Oryza sativa cv. Koshihikari (rice) at 500 g a.i/ha measured after 14 days
- Assay type: organism-based
- stated conditions: in vivo, 336 h
value type: Activity

Illustrative cases are given below, each with its answer.
Cn1cc(C(=O)N2CCCC2)c(OCc2cccc(C(F)(F)F)c2)n1 : Non-toxic
CCCONC(=O)c1cn(C)nc1OCc1cccc(C(F)(F)F)c1 : Toxic
CCCn1cc(C(=O)NOCC)c(OCc2cccc(C(F)(F)F)c2)n1 : Non-toxic
CNC(=O)c1cn(C)nc1OCc1cccc(C(F)(F)F)c1 : Non-toxic

Next:
I looked up `Cn1cc(C(=O)Nc2ccc(F)cc2F)c(OCc2cccc(C(F)(F)F)c2)n1` and its Activity for Oryza sativa was Toxic

====

- Tested on: Rotala indica
- method notes: Pre-emergence herbicidal activity against Rotala indica assessed as bleaching of stem/leaf parts
- Type: functional, organism-based
The source made the active and inactive calls.
value type: Activity

Illustrative cases are given below, each with its answer.
CCCN(OCC)C(=O)c1cn(C)nc1OCc1cccc(C(F)(F)F)c1 : Active
Cn1nc(OCc2cccc(C(F)(F)F)c2)c(C(=O)NOc2ccc(F)cc2F)c1Cl : Active
Cn1cc(C(=O)Nc2ccc(C(F)(F)F)cc2)c(OCc2cccc(C(F)(F)F)c2)n1 : Active
Cn1cc(C(=O)Nc2ccc(F)cc2F)c(OCc2cccc(C(F)(F)F)c2)n1 : Active
CCCN(CC)C(=O)c1cn(C)nc1OCc1cccc(Br)c1 : Active

Next:
Per the record, `CCCN(CC)C(=O)c1cn(C)nc1OC` has Activity of Active
